system: 628569-122-R-J1-PDC complex spheroid viability; experiment: Anticancer human tumor 628569-122-R-J1-PDC patient-derived head and neck squamous carcinoma cell line growth inhibition [CLK]; conditions: curve of first compound; second compound 0.0316 µM;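 further: spheroids exposed to agents for seven days before readout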
pIC50: −log10 of the molar value.
Quick rule: pIC50 of at least 6 means yes (1), below that means no (0).

C=C(F)C(=O)N1CCN(c2nc(OCC3CCCN3C)nc3c2CCN(c2cccc4cccc(Cl)c24)C3)CC1CC#N (stereo not given) + CNC(=O)c1ccc(Nc2nc(OC3CCCC3)c3c(-c4ccc5nc(C)oc5c4)c[nH]c3n2)c(OC)c1 ... no (0)
CC(=O)O[C@H]1C(=O)[C@@]2(C)[C@H]([C@H](OC(=O)c3ccccc3)[C@]3(O)C[C@H](OC(=O)[C@H](O)[C@@H](NC(=O)c4ccccc4)c4ccccc4)C(C)=C1C3(C)C)[C@]1(OC(C)=O)CO[C@@H]1C[C@@H]2O + CNC(=O)c1ccc(Nc2nc(OC3CCCC3)c3c(-c4ccc5nc(C)oc5c4)c[nH]c3n2)c(OC)c1 ... yes (1)
CC(C)CC(NC(=O)C(Cc1ccccc1)NC(=O)c1cnccn1)B(O)O (stereo not given) + CNC(=O)c1ccc(Nc2nc(OC3CCCC3)c3c(-c4ccc5nc(C)oc5c4)c[nH]c3n2)c(OC)c1 ... yes (1)
CCN1CCN(Cc2ccc(Nc3ncc(F)c(-c4cc(F)c5nc(C)n(C(C)C)c5c4)n3)nc2)CC1 + CNC(=O)c1ccc(Nc2nc(OC3CCCC3)c3c(-c4ccc5nc(C)oc5c4)c[nH]c3n2)c(OC)c1 ... no (0)
Nc1ccccc1NC(=O)c1ccc(CNC(=O)OCc2cccnc2)cc1 + CNC(=O)c1ccc(Nc2nc(OC3CCCC3)c3c(-c4ccc5nc(C)oc5c4)c[nH]c3n2)c(OC)c1 ... no (0)
CC(C)CC(NC(=O)C(Cc1ccccc1)NC(=O)c1cnccn1)B(O)O (stereo not given) + CN1CCN(c2cc(C(=O)Nc3cc4cc(-c5cnn(C)c5)ccc4cn3)ccn2)CC1 ... yes (1)

Query: Is pIC50 at least 6? Consider CCCS(=O)(=O)Nc1ccc(F)c(C(=O)c2c[nH]c3ncc(-c4ccc(Cl)cc4)cc23)c1F + CN1CCN(c2cc(C(=O)Nc3cc4cc(-c5cnn(C)c5)ccc4cn3)ccn2)CC1
Reply: no (0)

Query: Does pIC50 meet or surpass 6 for COc1cccc2c1C(=O)c1c(O)c3c(c(O)c1C2=O)CC(O)(C(=O)CO)CC3OC1CC(N)C(O)C(C)O1 (stereo not given) + CNC(=O)c1ccc(Nc2nc(OC3CCCC3)c3c(-c4ccc5nc(C)oc5c4)c[nH]c3n2)c(OC)c1 ?
Reply: yes (1)

Query: # check: pIC50 of CC(=O)O[C@H]1C(=O)[C@@]2(C)[C@H]([C@H](OC(=O)c3ccccc3)[C@]3(O)C[C@H](OC(=O)[C@H](O)[C@@H](NC(=O)c4ccccc4)c4ccccc4)C(C)=C1C3(C)C)[C@]1(OC(C)=O)CO[C@@H]1C[C@@H]2O + CN1CCN(c2cc(C(=O)Nc3cc4cc(-c5cnn(C)c5)ccc4cn3)ccn2)CC1 is greater than or equal to 6
Reply: yes (1)

Query: Assess whether reported pIC50 for C#Cc1c(F)ccc2cc(O)cc(-c3ncc4c(N5CC6CCC(C5)N6)nc(OCC56CCCN5CC(F)C6)nc4c3F)c12 (stereo not given) + CNC(=O)c1ccc(Nc2nc(OC3CCCC3)c3c(-c4ccc5nc(C)oc5c4)c[nH]c3n2)c(OC)c1 sits at 6 or higher.
Reply: no (0)

Query: Could you please find out whether O=c1[nH]cc(F)c(=O)[nH]1 + CN1CCN(c2cc(C(=O)Nc3cc4cc(-c5cnn(C)c5)ccc4cn3)ccn2)CC1 has pIC50 that meets 6 or exceeds it?
Reply: no (0)

The measured values listed here are drawn from PubChem BioAssay AID2060611.
